quantity.name: melting point

Examples with their reported melting point follow.
// melting point value for NC(=O)Cc1cccc(C(O)c2ccccc2)c1N (stereo unspecified) : 198 to 199 °C

The measured melting point associated with O=C1N(Cc2ccccn2)c2ccccc2C12COc1c2ccc2c1OCCO2 (stereo unspecified) reads 205 to 206 °C

So for Cc1nnc(-c2ccc3occ(-c4ccc(S(C)=O)c(C)c4)c3c2)o1 (stereo unspecified) , the logged melting point turned out to be 195 to 196 °C

Input Cc1cc(C)c2c(n1)CC(c1ccccc1)CC2=O (stereo unspecified) . Output melting point: 97 to 99 °C

Give one value of melting point per listed compound.
1. O=S1CCNCc2c(Cl)cccc21 (stereo unspecified)
2. O=C(O)C(CC1CCCC1)c1ccc(C#Cc2ccccn2)cc1 (stereo unspecified)
3. CCOC(=O)[C@H]1O[C@@H]1C(=O)N[C@H](COCc1ccsc1)CC(C)C
4. Cc1ccc(O)c(Cn2ccnc2)n1
5. CCOCC(=O)Nc1ccc(C2=NNC(=O)CC2C)cc1 (stereo unspecified)
6. O=C(Oc1ccc(Cl)cn1)c1cc2ccccc2sc1=O
7. CCCc1nc(N)nc(N)c1N1CCN(c2ccc(C(=O)N[C@@H](CCC(=O)OCC)C(=O)OCC)cc2)CC1

["125 to 126 °C", "143 to 147 °C", "61 to 62.5 °C", "153 to 155 °C", "195 to 197 °C", "174 to 176 °C", "175 to 180 °C"]

* * *

quantity.name: melting point

Consider the worked cases shown below.
// melting point value for O=C1Nc2cc3c(cc2SC1CCCBr)OCO3 (configuration not stated) : 168 to 169 °C

Query CCCCCc1cc(C(=O)OC)ccc1O yields melting point of 82.5 to 83.5 °C

Lab note: each compound below needs its melting point filled in.
1. CS(=O)c1[nH]cc(CCc2ccccc2)c1[N+](=O)[O-] (configuration not stated)
2. CCOC(=O)c1c[nH]cc1-c1ccc(Cl)cc1
3. C[Si](C)(C)C#Cc1c[nH]c(=O)[nH]c1=O

172 to 173 °C
137 to 138 °C
187 to 189 °C

Lab note: each compound below needs its melting point filled in.
1. COc1cc(OC)nc(C(=O)c2cccc(Cl)c2C(=O)N(C)C)n1
2. CCOC(=O)COc1ccc(Cn2c(-c3ccc(OCc4ccccc4)cc3)c(C)c3cc(OCc4ccccc4)ccc32)cc1OC
3. COc1ccc2c(c1)C(=O)OC(=O)C2
4. CCOP(=O)(CC(Nc1cccnc1)c1cc(OC)c(O)c(OC)c1)OCC (configuration not stated)
5. NS(=O)(=O)C=Cc1ccc(Cl)c(Cl)c1

1: 141 to 142 °C; 2: 120 to 123 °C; 3: 138 to 140 °C; 4: 164 to 166 °C; 5: 127 to 130 °C

Look at each compound and report its melting point.
1. Cc1nc2c(N)nc3ccccc3c2n1CCCNC(=O)N1CCOCC1
2. Cc1ccc2c(n1)C(=O)N(c1c(Cl)ccc(C)c1C#N)C2=O
3. CS(=O)(=O)c1ccc(-c2cnn(-c3cccc(Cl)c3)c(=O)c2Cl)cc1
4. CCn1c(C)nc2cc(CN3CCN(C(c4ccccc4)c4ccccc4)CC3)ccc21

226 to 228 °C
173 to 176 °C
203 to 204 °C
153 °C

* * *

quantity.name: melting point

Solved entries:
Record CN(CC(=O)O)C[C@H]1O[C@H](c2ccccc2Cl)c2cc(Cl)ccc2N(Cc2ccccc2)C1=O (relative stereo) , field melting point: 195 to 197 °C

Measured melting point of CONC(=O)c1cc(C)c(C(c2cc(F)ccc2F)S(=O)(=O)c2ccc(F)cc2)cn1 (stereo not given) : 231 to 234 °C

# melting point of CC(=O)Nc1nc2c(s1)-c1c(cnn1-c1ccc(Cl)cc1)C2 = 296 to 305 °C

get_value(item= CN(C(=O)N1Cc2nc(Cc3ccccc3)n(Cc3ccccc3)c2C[C@H]1CO)c1ccccc1 , readout=melting point) returns 80 to 87 °C

Sample CCOC(=O)Cn1c(=O)c(=O)[nH]c2cc(C(F)(F)F)c(-n3ccc(C=NO)c3)cc21 ; melting point observed: > 250 °C

Briefly, melting point measured for CCCCc1sc(C(=O)O)c2c1-c1c(cnn1C)CC2 : 286 to 287 °C

Okay, here is my list. What is melting point for each of these?
1. FC(F)(F)c1cc(Cl)c(-n2ncc(-c3nc(C(F)(F)F)c[nH]3)n2)c(Cl)c1
2. CCOC(=O)c1ccccc1C(=O)c1ccc2c(c1)C(C)(C)C(C)C2(C)C (stereo not given)
3. CN1CCCC1=C(C#N)c1ccc(N)cc1
4. CNC(=O)[C@@H]1C=CCN1C(=O)OC(C)(C)C

262 to 264 °C
56 to 57 °C
116 to 118 °C
47 to 48 °C

* * *

quantity.name: melting point

get_value(item= CCOC(=O)Cn1c(=O)n(Cc2ccc(Cl)cc2)c(=O)c2ccccc21 , readout=melting point) returns 137 °C

The compound listed as O=c1cc[nH]c2cn[nH]c12 has a reported melting point of > 320 °C

Just so you know, measured melting point for CC1(c2ccccc2)C(=O)c2c(cc(OCC(=O)O)c(Cl)c2Cl)C1c1ccccc1 (configuration not stated) came out at 203 to 205 °C

Record Cn1nc(N)c2sc3ncccc3c21 , field melting point: 194 to 196 °C

Sure, the documented melting point for CC(=O)Oc1cc(Cl)ccc1C(=O)NCCO[N+](=O)[O-] is 75 to 77 °C

Lab note: measured melting point of CCCCc1nc2c(N)nc3cc(-c4ccccc4)ccc3c2n1CCCS(C)(=O)=O was 214 to 216 °C

Count: 6. Required value per item: melting point.
1. CCN1C(=O)N(CC2CC2)c2ccc(Cl)cc2C1c1ccccc1 (configuration not stated)
2. O=C1C(=Cc2cccc(Cl)c2)SC(c2cccc(Cl)c2)N1CCCN1CCCCC1 (configuration not stated)
3. CC1(CC(=O)O)OCCC2=C1Cc1ccccc12 (configuration not stated)
4. N#Cc1cc(N)ccc1Sc1ccccc1
5. CC(=O)Oc1ccc(C[C@H]2CCc3ccccc3O2)cc1
6. CC(C)c1cccc(NC(=O)c2ccccc2C(F)(F)F)c1

1. 88 to 90 °C
2. 137 to 139 °C
3. 179 to 180 °C
4. 73 to 75 °C
5. 64 to 65 °C
6. 87.5 to 88.5 °C

* * *

For each entry below, report its melting point value.

Looking up Cc1ccn2nc(S(=O)(=O)N(C(=O)c3ccccc3)c3c(Cl)cccc3Cl)nc2n1 , I see its melting point listed as 187 to 189 °C

Measured melting point of CCCCCCN1c2ccc(OC)cc2C(C)(C)C12C=Cc1cc([N+](=O)[O-])cc(OC)c1S2 (centres undefined) : 97 to 98 °C

# compound OCCC1Cc2ccccc2C1O (centres undefined) ; its melting point = 80 to 82 °C

For record CCOC(=O)C1=C(COCc2cccnc2)NC(COCc2cccnc2)=C(C(=O)OCC)C1c1cccc([N+](=O)[O-])c1 the listed melting point is 169 to 171 °C

Per the records, this compound ( N#Cc1cnn2c(C(F)(F)F)cc(-c3ccc(F)c(C(F)(F)F)c3)nc12 ) has melting point equal to 204 °C

Notebook: CCCC1=C(C#N)C(c2ccccc2Cl)c2c(n[nH]c2-c2ccccc2OC)N1 (centres undefined) , melting point read as > 270 °C

Entry C=CCN(CC=C)c1nc(Cl)nc2c(SC)ncnc12 — recorded melting point = 83 to 84 °C

Lab note: measured melting point of COc1ccc(-c2cc3nc(N(C)C)c4ccccc4c3nn2)cc1 was 160 to 162 °C

Respectfully, I request melting point for each entry included below.
1. CCn1cc(C(=O)O)c(=O)c2cc(F)c(N3CCN(C)C(c4cc5cc(Cl)ccc5o4)C3)cc21 (centres undefined)
2. CCOC(=O)c1cnc2n(c1=O)CCc1cc(OC)ccc1-2

1: 248 to 249 °C; 2: 158 to 160 °C

* * *

Please provide measured melting point for the entries that follow.

Consider CCc1cnc(-c2ccc(N=C=S)cc2)nc1 . Its measured melting point is 114 °C

// melting point value for CCOC(=O)NC(=O)N(O)Cc1c(C)n(C(=O)c2ccc(Cl)cc2)c2ccc(OC)cc12 : 148 °C

Per the record, CON=C(N)Nc1nccc(C)n1 has melting point of 152 °C

# molecule COc1ccc(C(O)(c2ccc(C(C)C)cc2)C(C)C)c(OC)c1 (stereo unspecified) ; its melting point = 80 to 81 °C

So for CN(c1ccccc1)S(=O)(=O)N[C@@H](Cc1ccc(NC(=O)c2c(Cl)cccc2Cl)cc1)C(=O)O , the logged melting point turned out to be 117 °C

// input: 2 molecules below; output: melting point for each
1. CCCCc1nnc(SCC(=O)OC)n1Cc1ccc(NC(=O)c2ccccc2C(=O)O)cc1
2. CCC(C)C(NC(=O)OC)C(=O)NC(Cc1ccccc1)C(O)CN(Cc1ccc(-c2cncs2)cc1)NC(=O)OC(C)(C)C (stereo unspecified)

1: 161 to 162 °C; 2: 163 to 166 °C

Measured values drawn from a melting point compilation (Tetko et al.; mined from patent text by program, amines drawn as free bases though some values may be those of a salt) for this set.
